assay.summary: Cytotoxic Profiling in HEK 293 Cell Line of Diverse Libraries Using Quantitative High-Throughput Screening; further: nearly all actives have a fitted effect of over 60% in size
stated.conditions: HEK 293 viability, ATP luminescence (CellTiter-Glo), 48-72 h; series mostly up to 115 µM
About 6,200 (6.6%) of roughly 94,000 compounds were called active. Inconclusive results (about 31%) are left out. The call rests on the fitted dose curve; in most records, active means well fitted inhibition curve with a large enough effect; inconclusive means small, poorly fitted or top-dose-only effect; inactive means flat fitted curve, though single readings scatter. The sample holds actives, similar compounds and a random draw of the others, so the mix is not that of the screen.
Answer with one of the outcomes active, inactive

Consider the worked cases shown below.
molecule: Cc1ccccc1CNC(=O)C1CCCN(Cc2cccnc2)CCC(=O)NCC1 (stereo unspecified)
group.label: inactive
//
molecule: CCn1ccc(C(=O)N2C[C@@H](F)C[C@H]2C(=O)N2CCCCC2)n1
group.label: inactive
//
molecule: CC(C)Oc1cccc(-c2n[nH]c3c2CC(=O)N(Cc2ccccc2)C3)c1
group.label: inactive
//
molecule: CC1CCN(c2ccc(CNC(=O)CN3CCCc4nc(C5CC5)ncc4C3=O)cc2)CC1
group.label: inactive
//
molecule: CC1(C)[C@H](Cc2cc(-c3ccccc3)on2)C[C@@H]1NS(C)(=O)=O
group.label: active

What did this assay record as the result for `O=C(N[C@@H]1CN(Cc2cccnc2)C[C@H]1CO)c1cccnc1` ?
inactive

What did this assay record as the result for `COc1ccc(CN2C[C@H]3CN(Cc4ccc(NC(C)=O)cc4)CCN3C2=O)cc1` ?
active

====

assay.summary: Cytotoxic Profiling in HEK 293 Cell Line of Diverse Libraries Using Quantitative High-Throughput Screening; further: nearly all actives have a fitted effect of over 60% in size; further: potency means the concentration at half of the fitted maximal effect
stated.conditions: HEK 293 viability, ATP luminescence (CellTiter-Glo), 48-72 h; series mostly up to 115 µM
Out of some 94,000 compounds screened, about 6,200 (6.6%) were called active. About 31% were inconclusive and are not listed. Many of the other results were omitted from the sample, so actives are more common in it than they were.
readout.kind: Potency

molecule: O=C(NC[C@H]1O[C@@H](CO)[C@@H](O)[C@H]1N1CCOCC1)c1ccco1
readout.kind: Potency
assay.result: inactive
--
molecule: Cc1ccc([S+](=O)([O-])N2CCN(C(=O)c3nc4cccnc4n(C4CCCC4)c3=O)CC2)cc1
readout.kind: Potency
assay.result: 39.8 µM (active)
--
molecule: O=C(NCCCc1ccccc1)C1CCc2nnc(-c3cccc(C(F)(F)F)c3)n21 (stereo not given)
readout.kind: Potency
assay.result: inactive
--
molecule: CN1CCCCCCN(S(=O)(=O)N(C)C)CCC1=O
readout.kind: Potency
assay.result: inactive

For the next question, use this molecule.
Sample O=C(NCc1ccncc1)C1CCN(C(=O)N2CC3CC(C2)[C@H]2CCCC(=O)N2C3)CC1 (stereo not given in full) — what was its Potency?
inactive

====

assay.summary: Cytotoxic Profiling in HEK 293 Cell Line of Diverse Libraries Using Quantitative High-Throughput Screening; further: nearly all actives have a fitted effect of over 60% in size
stated.conditions: HEK 293 viability, ATP luminescence (CellTiter-Glo), 48-72 h; series mostly up to 115 µM
The campaign covered roughly 94,000 compounds. About 6,200 (6.6%) were called active. Roughly 31% stayed inconclusive and do not appear here. The call rests on the fitted dose curve; in most records, active means well fitted inhibition curve with a large enough effect; inconclusive means small, poorly fitted or top-dose-only effect; inactive means flat fitted curve, though single readings scatter. The full list was thinned out, with actives kept by preference.
Answer with one of the outcomes active, inactive

Consider the worked cases shown below.
compound: O=C(Cn1nc2c(cc1=O)CCCC2)Nc1nc(-c2ccc3c(c2)OCCCO3)cs1
group.label: inactive
//
compound: CC(C)N1Cc2cc(C(=O)Nc3cccc4c3CCCC4)sc2C1
group.label: active

Kindly review the next compound as well.
What did this assay record as the result for `CO[C@H]1CN(C(C)C)[C@H]1C1CCN(C(=O)NCCc2ccccc2)CC1` ?
inactive
